target.under.test: SARS-CoV-2 S2 protein (SARS-CoV-2, UniProt P0DTC2 686-1213)

| binder | unit.symbol | koff |
| --- | --- | --- |
| AB-009283 (antibody, V domains shown) VH: EVQLVESGGGLIQPGGSLRLSCAASGFTVSSNYMSWVRQAPGKGLEWVSVIYSGGSTYYADSVKGRFTISRDNSKNTLYLQMNSLRAEDTAVYYCATSSFDYYYYFMDVWGKGTTVTVSS VL: SYELTQPPSVSVSPGQTASITCSGDKLGDKYACWYHQKPGQSPVLVIYQDTKRPSGIPERFSASNSGNTATLTISGTQALDEADYYCQAWDSSIVVFGGGTKLTVL | s⁻¹ | 0.000319 |
